Tested on: methicilline resistant Staphylococcus aureus (MRSA) (a clinical isolate from the University of Antwerp)
PROTOCOL NOTES: Microtitre plate assay, IC90 determination
Format: cell-based
PARTICULARS: 90% inhibitory concentration for bacterial growth, 37° C., resazurin fluorescence, read-out: IC90 (μg/ml) STA RMETHIC
Attribute: IC90

Consider the following illustrative entries.
> print(dat)
                                   compound  attribute.measured  test.result
1  CN(C)CCC(O)(c1cc(F)cc(F)c1)c1cccc2nc(N(C)C)c(-c3ccccc3)cc12 (stereo not drawn) [Compound 45]                IC90   46.2 µg/mL
2  COc1cc(-c2ccccc2)c2cc(C(O)(CCN(C)C)c3ccccn3)ccc2n1 (stereo not drawn) [Compound 16]                IC90   10.4 µg/mL

With those in mind, consider the next compound.
# input Quick check: IC90 of COc1nc2cccc(C(O)(CCN(C)C)c3ccc4ccccc4c3)c2cc1-c1ccccc1 (stereo not drawn) [Compound 3] ?
# output 11.6 µg/mL

----------
System: Streptococcus mutans (ATCC33402)
PROTOCOL NOTES: Microtitre plate assay, IC90 determination
Type: cell-based
PARTICULARS: 90% inhibitory concentration for bacterial growth, 37° C., resazurin fluorescence, read-out: IC90 (μg/ml) SMU 33402
ATTRIBUTE MEASURED: IC90
Answer format: value, then unit.

Consider the following illustrative entries.
> print(dat)
                                   compound  attribute.measured  test.result
1  CN(C)CCC(O)(c1cc(F)cc(F)c1)c1cc(Br)cc2cc(Cc3ccccc3)c(-n3ccnc3)nc12 (stereo not drawn) [Compound 19]                IC90   11.5 µg/mL
2  COc1nc2cccc(C(O)(CCN(C)C)c3cccc4ccccc34)c2cc1-c1ccccc1 (stereo not drawn) [Compound 2]                IC90    9.2 µg/mL

With those in mind, consider the next compound.
# input Quick check: IC90 of COc1nc2ccccc2c(CC(O)(CCN(C)C)c2cccc3ccccc23)c1Cc1ccccc1 (stereo not drawn) [Compound 70] ?
# output 9.8 µg/mL
